Source: ChEMBL document CHEMBL3507680

As shown below, each of these molecules has a reported cytotoxicity at 70.5 h value.
- assayNotes: Human HepG2 cell viability assay in 384 well format
- Type: toxicity, cell-based
- Parameters: dose 125 nL, time 70.5 hour; concentration not given beside the values
- measurementParameters: HepG2 cells, read-out: Inhibition
Write it as a number; the unit % goes unstated.

# count of solved cases: 5
cytotoxicity at 70.5 h for OC1(CNCCc2nc3c(s2)CCCC3)CNCCOC1 (configuration not stated) ?
4.06

Given Cc1nc(CN2CCC(NS(C)(=O)=O)CC2)co1 , state its recorded cytotoxicity at 70.5 h.
-9.09

Given the entry CN(C)Cc1cn(-c2ccccc2C(=O)NCCC2CCCN2C)cn1 (configuration not stated) , report its measured cytotoxicity at 70.5 h.
24.5

What measured cytotoxicity at 70.5 h goes with CC[C@H](N)C(=O)Nc1nn(CC(F)(F)F)c2cc(OC(C)C)ccc12 ?
-14.2

Consider the molecule shown here: COCCN1CCc2ncnc(N(C)C)c2CC1 What is its recorded cytotoxicity at 70.5 h?
-10.9

***
Report cytotoxicity at 70.5 h for O=C(NCCC1=CCCCC1)C1CCN(c2ccc3nncn3n2)CC1 please.
3.11

For the molecule shown here, CC(C)N1CC2(CCC1=O)CCN(c1ccnc3ccccc13)CC2 , give the reported cytotoxicity at 70.5 h.
41.8

Given the entry CSc1nc(C)cc(N2CCC(c3ncc[nH]3)CC2)n1 , report its measured cytotoxicity at 70.5 h.
-2.3

# cytotoxicity at 70.5 h lookup, item CN1C(=O)CN(C(=O)c2ccc(=O)n(C)c2)c2ccccc21
1.56

What value of cytotoxicity at 70.5 h has been reported for the following molecule? Cc1ccc(-c2cc(C(=O)NCCC3=CCCCC3)[nH]n2)o1
-10.6

Could you share which cytotoxicity at 70.5 h value was measured for O=C(NCCOc1ccc(Cl)cn1)Nc1nccs1 ?
11

Which cytotoxicity at 70.5 h is listed for Nc1nc(CN2CCCC2Cn2cncn2)nc2ccccc12 (configuration not stated) ?
-2.37
